Molecular target: T1, human GIP receptor (human, UniProt P48546 22-466)
T1 sequence (looked up): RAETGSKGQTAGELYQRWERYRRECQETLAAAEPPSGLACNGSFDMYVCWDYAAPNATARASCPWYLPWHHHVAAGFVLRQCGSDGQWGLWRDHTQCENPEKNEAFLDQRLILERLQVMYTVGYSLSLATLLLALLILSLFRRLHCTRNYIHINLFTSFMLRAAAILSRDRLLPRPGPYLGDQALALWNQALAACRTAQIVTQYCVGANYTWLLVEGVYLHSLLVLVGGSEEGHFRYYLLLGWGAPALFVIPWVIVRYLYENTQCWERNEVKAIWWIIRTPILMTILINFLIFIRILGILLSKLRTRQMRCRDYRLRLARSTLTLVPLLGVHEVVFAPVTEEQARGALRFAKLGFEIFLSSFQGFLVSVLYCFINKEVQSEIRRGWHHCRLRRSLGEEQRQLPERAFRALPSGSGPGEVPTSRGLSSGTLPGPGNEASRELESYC
Assay: cell-based or functional assay
Bridge positions count the residues as written; N and C are the ends. Square brackets hold non-standard residues; d marks the D form. Ends that are not written are not given here. * marks the point of attachment. Acetyl(2-(4-imidazolyl)) = O=C(Cc1c[nH]cn1)*; Aib = CC(C)(N)C(=O)O
Lab note: anything with In vitro activity compared to native peptide (%) vs GIP below 3% is marked true; values at 3% or higher are marked false.

Worked examples, 8 binders total:
• H[Aib]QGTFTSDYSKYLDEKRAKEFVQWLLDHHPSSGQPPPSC (bridge 16-20) [Triple agonist of SEQ ID NO: 50] = true
• H[Aib]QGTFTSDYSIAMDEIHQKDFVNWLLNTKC (bridge 16-20) [Triple agonist of SEQ ID NO: 35] = true
• H[Aib]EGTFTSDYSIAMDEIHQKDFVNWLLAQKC (bridge 16-20) [Triple agonist of SEQ ID NO: 79] = true
• Y[Aib]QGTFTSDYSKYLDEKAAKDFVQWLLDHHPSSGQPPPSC (bridge 16-20) [Triple agonist of SEQ ID NO: 77] = false
• H[Aib]QGTFTSDVSSYLDGQAQKEFIAWLVKGC [Triple agonist of SEQ ID NO: 2] = true
• H[Aib]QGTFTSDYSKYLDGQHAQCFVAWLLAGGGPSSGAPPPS [Triple agonist of SEQ ID NO: 39] = true
• Y[Aib]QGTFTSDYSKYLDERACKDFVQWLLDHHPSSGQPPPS (bridge 16-20) [Triple agonist of SEQ ID NO: 71] = false
• HGQGTFTSDCSKYLDGQRAQEFVAWLLAGGPSSGAPPPS [Triple agonist of SEQ ID NO: 47] = true

stdin: Find out if reported In vitro activity compared to native peptide (%) vs GIP for H[Aib]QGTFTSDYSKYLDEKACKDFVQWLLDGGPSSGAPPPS (bridge 16-20) [Triple agonist of SEQ ID NO: 32] is less than 3%
stdout: false

stdin: Repeat for the following binder: H[Aib]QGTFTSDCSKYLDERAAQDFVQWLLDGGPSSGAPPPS [Triple agonist of SEQ ID NO: 25]
stdout: true

stdin: Repeat for the following binder: {Acetyl(2-(4-imidazolyl))}-GQGTFTSDLSKQMDSERAREFIEWLKNTGPSSGAPPPSHG [Triple agonist of SEQ ID NO: 18]
stdout: true

stdin: Repeat for the following binder: {Acetyl(2-(4-imidazolyl))}-[Aib]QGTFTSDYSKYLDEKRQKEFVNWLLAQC (bridge 15-19) [Triple agonist of SEQ ID NO: 86]
stdout: true

stdin: Repeat for the following binder: {Acetyl(2-(4-imidazolyl))}-[Aib]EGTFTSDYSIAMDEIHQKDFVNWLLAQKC (bridge 15-19) [Triple agonist of SEQ ID NO: 90]
stdout: true

stdin: Repeat for the following binder: {Acetyl(2-(4-imidazolyl))}-[Aib]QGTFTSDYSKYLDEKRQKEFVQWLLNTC (bridge 15-19) [Triple agonist of SEQ ID NO: 81]
stdout: true

stdin: Repeat for the following binder: H[Aib]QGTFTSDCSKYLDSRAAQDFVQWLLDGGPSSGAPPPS [Triple agonist of SEQ ID NO: 26]
stdout: true

stdin: Repeat for the following binder: H[Aib]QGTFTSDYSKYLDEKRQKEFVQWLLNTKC (bridge 16-20) [Triple agonist of SEQ ID NO: 58]
stdout: true

stdin: Repeat for the following binder: Y[Aib]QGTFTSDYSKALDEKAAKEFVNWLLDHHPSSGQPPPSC (bridge 16-20) [Triple agonist of SEQ ID NO: 98]
stdout: false

stdin: Repeat for the following binder: H[Aib]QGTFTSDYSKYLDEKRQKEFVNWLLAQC (bridge (positions not given here); also: ring formation between underlined amino acids, places not given here) [Triple agonist of SEQ ID NO: 56]
stdout: true

stdin: Repeat for the following binder: {Acetyl(2-(4-imidazolyl))}-[Aib]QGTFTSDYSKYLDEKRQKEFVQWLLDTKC (bridge 15-19) [Triple agonist of SEQ ID NO: 89]
stdout: true

stdin: Repeat for the following binder: H[Aib]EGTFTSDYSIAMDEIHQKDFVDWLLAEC (bridge 16-20) [Triple agonist of SEQ ID NO: 54]
stdout: true

stdin: Repeat for the following binder: {Acetyl(2-(4-imidazolyl))}-[Aib]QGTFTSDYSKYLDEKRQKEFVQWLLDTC (bridge 15-19) [Triple agonist of SEQ ID NO: 82]
stdout: true
